Sourced from patent US6828317B2

measured-property: melting point

compound=CC(=S)NC[C@H]1CN(c2ccc(C3=NNC(=S)CS3)c(F)c2)C(=O)O1 result_value="158 to 161 °C"
compound="CC(=O)NC[C@H]1CN(c2ccc(C3=NNC(=O)C(F)S3)c(F)c2)C(=O)O1 (some centres unmarked)" result_value="218 to 220 °C"
compound=CC(=O)NC[C@H]1CN(c2ccc(C3=NNC(=O)C(C)(C)S3)c(F)c2)C(=O)O1 result_value="179 to 181 °C"
compound=CC(=O)NC[C@H]1CN(c2ccc(C3=NNC(=O)[C@H](C)S3)c(F)c2)C(=O)O1 result_value="200 to 202 °C"
compound=O=C1CSC(c2ccc(N3C[C@H](CO)OC3=O)cc2F)=NN1 result_value="224 to 227 °C"
compound="CCC1SC(c2ccc(N3C[C@H](CNC(C)=O)OC3=O)cc2F)=NNC1=O (some centres unmarked)" result_value="177 to 179 °C"
compound=CC(=O)NC[C@H]1CN(c2ccc(C3=NNC(=O)C4(CCC4)S3)c(F)c2)C(=O)O1 result_value="214 to 215 °C"
compound="CC(=O)NC[C@H]1CN(c2ccc(C3=NNC(=O)C(OC(C)=O)S3)c(F)c2)C(=O)O1 (some centres unmarked)" result_value="174 to 177 °C"

====

Target or system S. pneumoniae UC9912: recorded log10 of MIC listed per item.
measured-property: log10 of MIC (log10 of the value in µg/mL)

compound="CC(C)(C)OC(=O)NC[C@H]1CN(c2ccc(C3=NNC(=O)CS3)c(F)c2)C(=O)O1 [Example 20]" target_system="S. pneumoniae UC9912" measured_property="log10 of MIC" result_value=0.30
compound="CC(=O)NC[C@H]1CN(c2ccc(C3=NNC(=O)C(C)(C)S3)c(F)c2)C(=O)O1 [Example 4]" target_system="S. pneumoniae UC9912" measured_property="log10 of MIC" result_value=-0.60
compound="O=C(/C=C/c1ccc(/C=N/O)cc1)NC[C@H]1CN(c2ccc(C3=NNC(=O)CS3)c(F)c2)C(=O)O1 [Example 23]" target_system="S. pneumoniae UC9912" measured_property="log10 of MIC" result_value=-0.60
compound="COC(=O)NC[C@H]1CN(c2ccc(C3=NNC(=O)CS3)c(F)c2)C(=O)O1 [Example 19]" target_system="S. pneumoniae UC9912" measured_property="log10 of MIC" result_value=-0.90
compound="CC(=O)NC[C@H]1CN(c2ccc(C3=NNC(=O)C4(CCC4)S3)c(F)c2)C(=O)O1 [Example 8]" target_system="S. pneumoniae UC9912" measured_property="log10 of MIC" result_value=-0.30
compound="O=C1CSC(c2ccc(N3C[C@H](CO)OC3=O)cc2F)=NN1 [Example 34]" target_system="S. pneumoniae UC9912" measured_property="log10 of MIC" result_value=-0.60
compound="CC(=O)NC[C@H]1CN(c2ccc(C3=NNC(=O)[C@@H](C)S3)c(F)c2)C(=O)O1 [Example 3]" target_system="S. pneumoniae UC9912" measured_property="log10 of MIC" result_value=-0.60
compound="O=C(CC(=O)c1ccc(F)cc1)NC[C@H]1CN(c2ccc(C3=NNC(=O)CS3)c(F)c2)C(=O)O1 [Example 22]" target_system="S. pneumoniae UC9912" measured_property="log10 of MIC" result_value=0.00
